Assay: chemical genetic growth profiling, strain panel (AID 1159580);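 further: tested at 20 µM; growth read once vehicle control cultures reached saturation at 30 °C; 1 = growth at the plate median or of vehicle wells; lower values mean less growth of the strain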
Details: S. cerevisiae deletion strains, growth OD, locus YCL069W, strain vba3, active compounds read low
In all, about 5,500 compounds went through this assay and about 2,000 (36%) were called active. Another 18% or so got no clear call; they are omitted. The list shows a part of the results.
Readings of normalized growth for the listed compounds

COMPOUND | normalized growth
C[N+](C)(C)CCOC(N)=O | 1.03
COC1=C(OC)C(=O)C(C/C=C(\C)CC/C=C(\C)CC/C=C(\C)CC/C=C(/C)CC/C=C(\C)CC/C=C(\C)CC/C=C(\C)CC/C=C(\C)CC/C=C(\C)CCC=C(C)C)=C(C)C1=O | 0.972
CC(C[N+](C)(C)C)OC(N)=O (stereo unspecified) | 1.03
NCCSSCCN | 0.997
CCN(CC)CCNC(=O)c1cc(Br)c(N)cc1OC | 0.987
CC(=O)OCC[N+](C)(C)C | 1.03

* * *

Listed molecules paired with reported normalized growth
Test: chemical genetic growth profiling, strain panel (AID 1159580);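 further: tested at 20 µM; growth read once vehicle control cultures reached saturation at 30 °C; 1 = growth at the plate median or of vehicle wells; lower values mean less growth of the strain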
Details: S. cerevisiae deletion strains, growth OD, locus YLR258W, strain gsy2, active compounds read low
About 2,000 (36%) of roughly 5,500 compounds were called active. Another 18% or so got no clear call; they are omitted. The list shows a part of the results.
REPORTED PROPERTY: normalized growth

MOLECULE | RESULT NUMBER
CC1=C(/C=C/C(C)=C/C=C/C(C)=C/C=C/C=C(C)/C=C/C=C(C)/C=C/C2=C(C)C(=O)C(O)CC2(C)C)C(C)(C)CC(O)C1=O (stereo not drawn) | 1.03
CC1=C(/C=C/C(C)=C/C=C/C(C)=C/C=C/C=C(C)/C=C/C=C(C)/C=C/C2=C(C)C(=O)CCC2(C)C)C(C)(C)CCC1=O | 0.982
CO[C@H]1[C@H](O)[C@H](O[C@H]2CC[C@]3(C)C4CC[C@]5(C)C(C6=CC(=O)OC6)CC[C@]5(O)C4CC[C@@H]3C2)O[C@@H](C)[C@@H]1O (stereo partly drawn) | 1

* * *

Experiment: chemical genetic growth profiling, strain panel (AID 1159580);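 further: tested at 20 µM; growth read once vehicle control cultures reached saturation at 30 °C; 1 = growth at the plate median or of vehicle wells; lower values mean less growth of the strain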
Conditions: S. cerevisiae deletion strains, growth OD, locus YDR150W, strain NUM1
Screen size: about 5,500 compounds; about 2,000 (36%) were called active. Another 18% or so got no clear call; they are omitted. No stated cut-off is given here; in the data, active means normalized growth mostly below about 0.91 (no sharp cut-off); inconclusive means no clear call, values can overlap the other calls; inactive means mostly above about 0.92. The list shows a part of the results.
Labels: True for active, False for inactive

COMPOUND | ASSIGNED CATEGORY
CN(N=O)c1cc(O)ccc1O | False
CCC(=O)Nc1cc(F)ccc1C | False
CCO/C=C1\SC(=S)N(CCc2ccccc2)C1=O | False
Cc1ccc(OS(=O)(=O)c2ccc(C#N)cc2)c(Br)c1 | False
CC(C)(C)C(=O)Nc1ccc(F)cc1 | False
Cc1cccc(C)c1NC(=O)C(C)Oc1ccc(Cl)cc1Cl (stereo not drawn) | False
CS(=O)(=O)c1ccc(C2=C(c3ccccc3)C(=O)OC2)cc1 | False
Oc1cc2c(c(Cl)c1O)CCNCC2c1ccccc1 (stereo not drawn) | True
c1ccc(N=Nc2ccc(Nc3ccccc3)cc2)cc1 | False
NC(=O)c1ccc[n+]([C@@H]2O[C@H](COP(=O)([O-])OP(=O)(O)OC[C@H]3O[C@@H](n4cnc5c(N)ncnc54)[C@H](O)[C@@H]3O)[C@@H](O)[C@H]2O)c1 | False
COc1ccc(OC)c(S(=O)(=O)Nc2ccc(C#N)cc2)c1 | False
COC(=O)c1sccc1OC(=O)c1c(F)cccc1F | False
CC(=O)[C@H]1CCC2C3CCC4=CC(=O)CC[C@]4(C)C3CC[C@@]21C (stereo partly drawn) | False
C[C@]12CCC(=O)C=C1CC[C@@H]1[C@@H]2CC[C@]2(C)C(=O)CC[C@@H]12 | False
Cc1ccc(C)c(NC(=S)N(CCc2ccccc2)CCc2ccccn2)c1 | False
N#CCOc1ccc(Cl)cc1Cl | False
C[N+](C)(C)CCOC(=O)CBr | True
COc1ccc(OC)c(S(=O)(=O)Oc2ccc(C#N)cc2)c1 | False
CC(C)(C)c1ccc(NC(=O)Cc2cc(F)cc(F)c2)cc1 | False
CCOC(=O)CCC(=O)O[C@H]1[C@H](O[C@@H]2[C@@H](C)[C@H](O[C@H]3C[C@@](C)(OC)[C@@H](O)[C@H](C)O3)[C@@H](C)C(=O)O[C@H](CC)[C@@](C)(O)[C@H](O)[C@@H](C)C(=O)[C@H](C)C[C@@]2(C)O)O[C@H](C)C[C@@H]1N(C)C | False
CN1CCC(=C2c3ccccc3C=Cc3ccccc32)CC1 | False
O=C1c2cccc3c([N+](=O)[O-])ccc(c23)C(=O)N1Cc1ccco1 | True
CN(N=O)c1ccc(O)c(O)c1 | True
ClC1=C(Cl)C2(Cl)C3C4C=CC(C4)C3C1(Cl)C2(Cl)Cl (stereo not drawn) | False
CC(C[N+](C)(C)C)OC(N)=O (stereo not drawn) | False
COC1=CC(=O)C[C@@H](C)[C@]12Oc1c(Cl)c(OC)cc(OC)c1C2=O | False
CCC(C)C(OC(C)=O)C(=O)OC1C(O)C2C3(C)C=CC(=O)C(C)(C)C3CC(OC(=O)C(O)C(C)C)C2(C)C23OC2CC(c2ccoc2)C13C (stereo not drawn) | False
COc1cc2c(cc1OC)[C@@H]1C(=O)c3ccc4oc(C(C)C)cc4c3O[C@@H]1CO2 | False
CCOc1ccc(/C=C(\C#N)c2cccc(Cl)c2)cc1 | False
COP(=O)(OC)OC=C(Cl)Cl | False
Nc1c(S(=O)(=O)O)cc(Nc2ccc(Nc3nc(Cl)nc(Nc4ccc(S(=O)(=O)O)cc4)n3)c(S(=O)(=O)O)c2)c2c1C(=O)c1ccccc1C2=O | False
CC1=C(OS(=O)(=O)c2cc(C)c(Cl)cc2Cl)C(=O)CC1 | False
C[N+](C)(C)CCOC(=O)CCC(=O)OCC[N+](C)(C)C | False
COc1ccc2c(c1)O[C@@H]1COc3cc(OC)c(OC)cc3[C@@H]1C2=O | False
COc1ccccc1N1CCN(S(=O)(=O)c2cc(C)c(Cl)cc2C)CC1 | False
CCN(CCO)CCCC(C)Nc1ccnc2cc(Cl)ccc12 (stereo not drawn) | False
O=C(Oc1ccc(C(F)(F)F)cc1[N+](=O)[O-])c1c(F)cccc1F | True
CC(=O)N[C@@H](CC(C)C)C(=O)O | False
CCOC(=O)[C@H](CCc1ccccc1)N[C@H]1CCc2ccccc2N(CC(=O)O)C1=O | False
C[C@H]1CC2C([C@@H](O)C[C@@]3(C)C2CC[C@]3(O)C(=O)CO)[C@@]2(C)C=CC(=O)C=C12 (stereo partly drawn) | False
C[C@]12CCC(=O)C=C1CCC1C2CC[C@@]2(C)C1CC[C@@H]2O (stereo partly drawn) | False
Cc1nc2c([nH]1)c(=O)n(C)c(=O)n2Cc1ccco1 | False
O=C(Nc1cccc(C(=O)Nc2ccc(S(=O)(=O)O)c3cc(S(=O)(=O)O)cc(S(=O)(=O)O)c23)c1)Nc1cccc(C(=O)Nc2ccc(S(=O)(=O)O)c3cc(S(=O)(=O)O)cc(S(=O)(=O)O)c23)c1 | False

* * *

# normalized growth listing for each entry below
Assay: chemical genetic growth profiling, strain panel (AID 1159580);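 further: tested at 20 µM; growth read once vehicle control cultures reached saturation at 30 °C; 1 = growth at the plate median or of vehicle wells; lower values mean less growth of the strain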
Conditions: S. cerevisiae deletion strains, growth OD, locus YLR113W, strain HOG1, active compounds read low
The campaign covered roughly 5,500 compounds. About 2,000 (36%) were called active. Inconclusive results (about 18%) are left out. Some of the results follow.

MOLECULE | normalized growth
CC(=O)O[C@@H]1C[C@@]2(C)C(CC[C@@H]2C(C)=O)C2CCC3=CC(=O)CC[C@]3(C)C21 (some centres undefined) | 1.02 (inactive)
CC(CCc1ccccc1)NC(C)C(O)c1ccc(O)cc1 (centres undefined) | 0.995 (inactive)
ClC1=C(Cl)C2(Cl)C3C4C=CC(C4)C3C1(Cl)C2(Cl)Cl (centres undefined) | 0.892 (inactive)
CC1(C)OC(=O)NC1=O | 1.02 (inactive)
O=C(O)c1cc2ccccc2[nH]1 | 0.95 (inactive)
Cc1ccccc1C(=O)Oc1ccc(C(F)(F)F)cc1[N+](=O)[O-] | 0.614 (active)
COc1cc(NC(=S)NC(=O)c2ccccc2)c(OC)cc1Cl | 0.91 (inactive)
OCCN1C[C@@H](O)[C@@H](O)C(O)C1CO (some centres undefined) | 1.04 (inactive)
CNC(C)[C@H](O)c1ccccc1 (some centres undefined) | 1.08 (inactive)
COc1cc(NC(C)CCCN)c2ncccc2c1 (centres undefined) | 1.06 (inactive)
CC(C)(C)CN/C(C#N)=C(/C#N)NCc1cccc(Cl)c1 | 0.915 (inactive)
O=C(O)c1cc2ccccc2c(Cc2c(O)c(C(=O)O)cc3ccccc23)c1O | 0.847 (active)
CC(N)C(=O)NC(Cc1ccccc1)C(=O)O (centres undefined) | 1.02 (inactive)
CCCCCCNC(=O)n1cc(F)c(=O)[nH]c1=O | 0.607 (active)
CCCCCCCCNC(C)C(O)c1ccc(SC(C)C)cc1 (centres undefined) | 1.04 (inactive)
CN[C@@H](C)[C@@H](O)c1ccccc1 | 0.984 (inactive)
CC[C@H](/C=C/C(C)C1CCC2C3CCC4=CC(=O)CC[C@]4(C)C3CC[C@]12C)C(C)C (some centres undefined) | 1.04 (inactive)
ClC1=C(Cl)C2(Cl)C3C(Cl)C=CC3C1(Cl)C2(Cl)Cl (centres undefined) | 0.938 (inactive)
COc1cc(NC(=S)N(C)C)c(OC)cc1Cl | 0.932 (inactive)
C[C@]12CCC(=O)C=C1CCC1C2CC[C@@]2(C)C1CC[C@@H]2O (some centres undefined) | 0.99 (inactive)
COC1=CC(=O)C[C@@H](C)[C@]12Oc1c(Cl)c(OC)cc(OC)c1C2=O | 1 (inactive)
ClC1=C(Cl)C2(Cl)C3C4CC(C5OC45)C3C1(Cl)C2(Cl)Cl (centres undefined) | 0.937 (inactive)
COc1ccc2c(c1OC)C(=O)O[C@H]2[C@H]1c2cc3c(cc2CCN1C)OCO3 | 1.05 (inactive)
CC(NCCc1ccc(O)cc1)C(O)c1ccc(O)cc1 (centres undefined) | 1.01 (inactive)
